experimental_target: T1, EsCas13d, nuclease-dead (Eubacterium siraeum, UniProt B0MS50, R295A;H300A;R849A;H854A)
T1 sequence: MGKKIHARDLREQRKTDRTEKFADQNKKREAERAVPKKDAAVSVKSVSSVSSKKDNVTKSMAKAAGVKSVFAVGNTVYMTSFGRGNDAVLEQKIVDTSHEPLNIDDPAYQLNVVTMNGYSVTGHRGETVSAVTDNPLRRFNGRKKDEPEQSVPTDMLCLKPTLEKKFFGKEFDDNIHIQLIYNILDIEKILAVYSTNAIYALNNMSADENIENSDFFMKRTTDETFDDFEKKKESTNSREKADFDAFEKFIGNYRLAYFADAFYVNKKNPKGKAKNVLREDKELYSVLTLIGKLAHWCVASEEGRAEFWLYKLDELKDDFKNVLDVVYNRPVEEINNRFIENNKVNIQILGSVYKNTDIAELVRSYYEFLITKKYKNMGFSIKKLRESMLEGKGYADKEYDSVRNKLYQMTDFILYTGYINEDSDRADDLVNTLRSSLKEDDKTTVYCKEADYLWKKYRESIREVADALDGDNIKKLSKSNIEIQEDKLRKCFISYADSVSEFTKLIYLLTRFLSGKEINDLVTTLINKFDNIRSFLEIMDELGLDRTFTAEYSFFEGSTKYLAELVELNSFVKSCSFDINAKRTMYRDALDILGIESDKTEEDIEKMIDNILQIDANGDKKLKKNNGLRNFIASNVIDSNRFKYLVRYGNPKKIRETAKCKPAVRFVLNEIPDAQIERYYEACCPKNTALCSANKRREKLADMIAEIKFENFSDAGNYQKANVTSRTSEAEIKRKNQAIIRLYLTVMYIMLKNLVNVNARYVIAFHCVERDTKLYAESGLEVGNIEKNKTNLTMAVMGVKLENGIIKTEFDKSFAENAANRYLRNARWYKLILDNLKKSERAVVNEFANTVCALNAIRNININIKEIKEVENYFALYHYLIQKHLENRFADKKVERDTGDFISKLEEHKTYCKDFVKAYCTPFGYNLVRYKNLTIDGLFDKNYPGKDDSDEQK
experiment_notes: crRNA (strand 1, pre-loaded); Mg2+; 40 mM Tris-HCl pH 7.5, 150 mM NaCl, 6 mM MgCl2, 1 mM DTT, 0.1% Tween-20, 0.2 mg/ml BSA; 25 C; 10 min per concentration, then washed
experimental_context: tags: His6-TwinStrep-SUMO cleaved; N-terminal SNAP kept (SNAP-Surface 488); label: 3' end held by stalled T7 RNA polymerase
measured_endpoint: Kd (nM)

target 2 MT 5'PFS UGG 3'PFS ACG (mixed) RNA 1: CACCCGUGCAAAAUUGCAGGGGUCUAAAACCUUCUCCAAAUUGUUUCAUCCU RNA 2: GGGAAUGGAUCCACAUCUACGAAUUCUGGAGGAUGAAACAAUUUGGAGAAGACGAGAUCGGAAGAGCACACGU | 5.5
target 2 MT 5'PFS UAC 3'PFS ACU (mixed) RNA 1: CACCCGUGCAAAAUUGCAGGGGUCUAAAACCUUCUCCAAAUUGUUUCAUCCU RNA 2: GGGAAUGGAUCCACAUCUACGAAUUCUACAGGAUGAAACAAUUUGGAGAAGACUAGAUCGGAAGAGCACACGU | 9
target 3 insA 3' of 22,insA 3' of 22 (mixed) RNA 1: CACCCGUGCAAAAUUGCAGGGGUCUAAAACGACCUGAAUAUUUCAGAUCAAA RNA 2: GGGAAUGGAUCCACAUCUACGAAUUCGUUUAAUUGAUCUGAAAUAUUCAGGUCUGCAGAUCGGAAGAGCACACGU | 19.4
target 1 insG 3' of 11,insC 3' of 10 (mixed) RNA 1: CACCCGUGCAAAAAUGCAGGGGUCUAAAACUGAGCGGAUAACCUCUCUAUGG RNA 2: GGGAAUGGAUCCACAUCUACGAAUUCGUACCAUAGAGAGGUGUCAUCCGCUCACCGAGAUCGGAAGAGCACACGU | 21.3
target 2 MT 5'PFS CGG 3'PFS UAA (mixed) RNA 1: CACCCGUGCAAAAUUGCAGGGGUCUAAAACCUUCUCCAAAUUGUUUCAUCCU RNA 2: GGGAAUGGAUCCACAUCUACGAAUUCCGGAGGAUGAAACAAUUUGGAGAAGUAAAGAUCGGAAGAGCACACGU | 4.4
target 1 U11C,A14C (mixed) RNA 1: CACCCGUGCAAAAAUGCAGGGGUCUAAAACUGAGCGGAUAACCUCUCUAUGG RNA 2: GGGAAUGGAUCCACAUCUACGAAUUCGUACCAUAGAGCGGCUAUCCGCUCACCGAGAUCGGAAGAGCACACGU | 86
target 3 insA 3' of 6,insU 3' of 5 (mixed) RNA 1: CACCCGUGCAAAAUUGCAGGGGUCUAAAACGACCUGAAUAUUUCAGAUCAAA RNA 2: GGGAAUGGAUCCACAUCUACGAAUUCGUUUUUGAUCUGAAAUAUUCAAUGGUCUGCAGAUCGGAAGAGCACACGU | 4
target 1 insA 3' of 8,insA 3' of 4 (mixed) RNA 1: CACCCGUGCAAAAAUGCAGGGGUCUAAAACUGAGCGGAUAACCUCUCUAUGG RNA 2: GGGAAUGGAUCCACAUCUACGAAUUCGUACCAUAGAGAGGUUAUACCGCAUCACCGAGAUCGGAAGAGCACACGU | 8.4
target 1 insC 3' of 17,insG 3' of 8 (mixed) RNA 1: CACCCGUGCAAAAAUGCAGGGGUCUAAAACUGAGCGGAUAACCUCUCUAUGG RNA 2: GGGAAUGGAUCCACAUCUACGAAUUCGUACCAUAGCAGAGGUUAUGCCGCUCACCGAGAUCGGAAGAGCACACGU | 58
target 2 MT 5'PFS AUU 3'PFS CCG (mixed) RNA 1: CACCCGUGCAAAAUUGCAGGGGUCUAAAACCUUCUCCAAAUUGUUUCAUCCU RNA 2: GGGAAUGGAUCCACAUCUACGAAUUCAUUAGGAUGAAACAAUUUGGAGAAGCCGAGAUCGGAAGAGCACACGU | 9.8
target 1 insA 3' of 15,insG 3' of 14 (mixed) RNA 1: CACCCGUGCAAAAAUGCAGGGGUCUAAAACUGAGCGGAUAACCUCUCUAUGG RNA 2: GGGAAUGGAUCCACAUCUACGAAUUCGUACCAUAGAGAAGGGUUAUCCGCUCACCGAGAUCGGAAGAGCACACGU | 10.6
target 1 C7U,A16G (mixed) RNA 1: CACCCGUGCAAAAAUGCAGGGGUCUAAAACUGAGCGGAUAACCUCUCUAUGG RNA 2: GGGAAUGGAUCCACAUCUACGAAUUCGUACCAUAGGGAGGUUAUUCGCUCACCGAGAUCGGAAGAGCACACGU | 29.9
target 1 A1U,U19G (mixed) RNA 1: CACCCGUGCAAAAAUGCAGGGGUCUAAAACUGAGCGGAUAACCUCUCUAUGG RNA 2: GGGAAUGGAUCCACAUCUACGAAUUCGUACCAGAGAGAGGUUAUCCGCUCUCCGAGAUCGGAAGAGCACACGU | 63
target 1 del13 (mixed) RNA 1: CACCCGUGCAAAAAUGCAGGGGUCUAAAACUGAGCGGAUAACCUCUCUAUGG RNA 2: GGGAAUGGAUCCACAUCUACGAAUUCGUACCAUAGAGAGUUAUCCGCUCACCGAGAUCGGAAGAGCACACGU | 8.6
target 1 insU 3' of 12,insU 3' of 6 (mixed) RNA 1: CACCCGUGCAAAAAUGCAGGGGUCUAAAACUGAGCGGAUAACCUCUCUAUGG RNA 2: GGGAAUGGAUCCACAUCUACGAAUUCGUACCAUAGAGAGGUUUAUCCUGCUCACCGAGAUCGGAAGAGCACACGU | 9.5
